target: Carbonic anhydrase 2 (Homo sapiens); assay: Inhibition of recombinant human carbonic anhydrase 2 assessed as inhibition of CO2 hydration preincubated for 15 mins prior to testing by phenol red based stopped-flow CO2 hydration assay
endpoint-name: pKi
One number for each entry, as −log10 of the molar value.

Item: CC(=O)c1nn(-c2ccc(S(N)(=O)=O)cc2)c2nc3nc(-c4cccs4)cc(-c4ccccc4)c3c(=O)n12 | pKi: 6.14
